The entries below are paired with their reported TGI.
# Test system: M14 melanoma
# TEST NAME: NCI tumour cell line growth inhibition, 48 h
Record the value in µM, omitting the unit from your answer.

Answered cases to consult:
Cc1ccc(/C=C(/C#N)n2nnc3ncccc32)cc1
17.7
CCC1=C[C@@H]2CN(C1)Cc1c([nH]c3ccccc13)[C@@](C(=O)OC)(c1cc3c(cc1OC)N(C)[C@H]1[C@@](O)(C(=O)OC)[C@H](OC(C)=O)[C@]4(CC)C=CCN5CC[C@]31[C@@H]54)C2
1.01

Turning to the following molecule.
// field: TGI; key: `CCOC(=O)NC(Nc1ccc(S(=O)(=O)Nc2ccc(OC)nn2)cc1)(C(F)(F)F)C(F)(F)F` ; value = 50.4
